molecular target: CRBN-DDB1 (Homo sapiens (Human), UniProt Q96SW2); assay: Compound binding to CRBN by HTRF assay
Sequence (Q96SW2 whole entry): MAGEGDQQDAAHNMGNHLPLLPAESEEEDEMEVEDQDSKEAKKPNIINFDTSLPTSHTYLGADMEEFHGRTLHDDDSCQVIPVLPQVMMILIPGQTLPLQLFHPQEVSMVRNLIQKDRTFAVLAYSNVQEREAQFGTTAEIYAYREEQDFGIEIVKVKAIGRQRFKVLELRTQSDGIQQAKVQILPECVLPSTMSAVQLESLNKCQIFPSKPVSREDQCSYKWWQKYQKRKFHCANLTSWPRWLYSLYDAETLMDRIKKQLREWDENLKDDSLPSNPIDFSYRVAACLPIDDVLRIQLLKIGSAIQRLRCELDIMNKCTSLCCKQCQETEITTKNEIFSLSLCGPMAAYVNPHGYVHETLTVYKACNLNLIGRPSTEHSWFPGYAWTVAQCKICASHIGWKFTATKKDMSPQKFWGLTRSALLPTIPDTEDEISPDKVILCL
Sequence (Q16531 whole entry partner): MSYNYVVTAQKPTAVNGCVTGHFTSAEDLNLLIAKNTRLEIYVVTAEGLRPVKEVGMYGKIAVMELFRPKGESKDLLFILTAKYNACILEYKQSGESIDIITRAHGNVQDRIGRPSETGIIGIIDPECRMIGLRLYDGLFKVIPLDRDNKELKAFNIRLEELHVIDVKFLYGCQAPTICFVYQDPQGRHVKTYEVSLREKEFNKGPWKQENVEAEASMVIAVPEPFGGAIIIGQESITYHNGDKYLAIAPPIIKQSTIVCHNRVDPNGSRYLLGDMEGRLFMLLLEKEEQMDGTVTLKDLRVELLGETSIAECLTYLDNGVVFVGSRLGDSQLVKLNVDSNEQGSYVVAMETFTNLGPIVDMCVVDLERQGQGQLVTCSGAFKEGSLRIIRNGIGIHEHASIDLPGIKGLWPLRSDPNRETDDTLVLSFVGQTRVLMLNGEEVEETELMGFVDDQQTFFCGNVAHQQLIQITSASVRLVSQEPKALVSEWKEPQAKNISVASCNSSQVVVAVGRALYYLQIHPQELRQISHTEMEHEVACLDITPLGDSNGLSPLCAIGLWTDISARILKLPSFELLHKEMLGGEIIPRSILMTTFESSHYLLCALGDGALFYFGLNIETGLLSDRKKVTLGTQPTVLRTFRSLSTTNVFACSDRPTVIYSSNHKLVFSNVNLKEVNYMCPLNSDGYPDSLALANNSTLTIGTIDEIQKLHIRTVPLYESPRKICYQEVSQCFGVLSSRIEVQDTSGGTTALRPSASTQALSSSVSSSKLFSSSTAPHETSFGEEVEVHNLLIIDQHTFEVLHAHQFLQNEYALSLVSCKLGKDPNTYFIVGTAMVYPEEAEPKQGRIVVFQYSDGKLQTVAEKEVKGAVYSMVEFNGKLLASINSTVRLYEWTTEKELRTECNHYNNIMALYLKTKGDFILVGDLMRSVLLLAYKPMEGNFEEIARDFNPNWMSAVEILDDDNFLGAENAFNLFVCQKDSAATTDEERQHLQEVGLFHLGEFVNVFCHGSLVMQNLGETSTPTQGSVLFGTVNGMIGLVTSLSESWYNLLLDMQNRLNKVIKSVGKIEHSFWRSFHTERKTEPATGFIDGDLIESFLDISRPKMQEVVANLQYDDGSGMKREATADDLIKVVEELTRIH
pEC50: −log10 of the molar value.
The following compounds are listed with their measured pEC50 values.
reported_endpoint: pEC50

> print(dat)
                                    compound  reported.endpoint  observed.value
 1  CC(C)(C(=O)NCc1ccc(C2CCC(=O)NC2=O)c(Cl)c1)c1ccc(F)cc1 (stereo not shown) [Compound 30]              pEC50            6.46
 2  Cn1cc(C(C)(C)C(=O)NCc2cc(Cl)c(C3CCC(=O)NC3=O)c(Cl)c2)ccc1=O (stereo not shown) [Compound 67]              pEC50            6.66
 3  CC(C)(C(=O)NCc1cc(Cl)c(C2CCC(=O)NC2=O)c(Cl)c1)c1ccnc(F)c1 (stereo not shown) [Compound 93]              pEC50            7.15
 4  CC(F)(F)c1cnc(C(C)(C)C(=O)NCc2cc(F)c(C3CCC(=O)NC3=O)c(Cl)c2)cn1 (stereo not shown) [Compound 255]              pEC50            7.05
 5  O=C1CC(C(=O)NCc2cc(Cl)c(C3CCC(=O)NC3=O)c(Cl)c2)(c2ccc(F)cc2)C1 (stereo not shown) [Compound 137]              pEC50            7.30
 6  CC(C)(C(=O)NCc1cc(Cl)c(C2CCC(=O)NC2=O)c(Cl)c1)c1cc(F)ccn1 (stereo not shown) [Compound 149]              pEC50            6.89
 7  CC(C)(C(=O)NCc1cc(Cl)c(C2CCC(=O)NC2=O)c(Cl)c1)c1ccc2[nH]c(=O)oc2c1 (stereo not shown) [Compound 77]              pEC50            7.15
 8  CC(C)(C(=O)NCc1cc(Cl)c(C2CCC(=O)NC2=O)c(Cl)c1)c1cc(C(F)F)ncn1 (stereo not shown) [Compound 159]              pEC50            6.55
 9  COc1cnc(C(C)(C)C(=O)NCc2cc(Cl)c(C3CCC(=O)NC3=O)c(Cl)c2)nc1C (stereo not shown) [Compound 221]              pEC50            7.10
10  Cc1cc(C(C)(C)C(=O)NCc2cc(Cl)c(C3CCC(=O)NC3=O)c(Cl)c2)ncn1 (stereo not shown) [Compound 173]              pEC50            6.64

* * *

The following compounds are listed with their measured Dmax values.
biological target: NEK7 (Homo sapiens (Human), UniProt Q8TDX7+Q96SW2); assay: NEK7 NanoBiT degradation assay in Cal51 NEK7 NanoBiT cell line; format: cell-based; settings: CAL-51; Cal51 NEK7 NanoBiT cells, 24 hours; read-out: NEK7 NanoBiT Dmax
Sequence (Q8TDX7 whole entry): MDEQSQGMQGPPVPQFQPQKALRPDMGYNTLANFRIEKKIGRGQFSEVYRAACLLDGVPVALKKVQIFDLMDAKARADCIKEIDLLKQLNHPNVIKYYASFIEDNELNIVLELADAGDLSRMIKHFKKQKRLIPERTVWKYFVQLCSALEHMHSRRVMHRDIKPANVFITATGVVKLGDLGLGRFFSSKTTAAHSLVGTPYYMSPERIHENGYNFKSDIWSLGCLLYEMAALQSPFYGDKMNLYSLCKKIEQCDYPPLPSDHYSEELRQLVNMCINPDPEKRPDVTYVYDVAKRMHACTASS
Sequence (Q96SW2 whole entry): as the sequence (Q96SW2 whole entry) above
Sequence (Q16531 2-1140 partner): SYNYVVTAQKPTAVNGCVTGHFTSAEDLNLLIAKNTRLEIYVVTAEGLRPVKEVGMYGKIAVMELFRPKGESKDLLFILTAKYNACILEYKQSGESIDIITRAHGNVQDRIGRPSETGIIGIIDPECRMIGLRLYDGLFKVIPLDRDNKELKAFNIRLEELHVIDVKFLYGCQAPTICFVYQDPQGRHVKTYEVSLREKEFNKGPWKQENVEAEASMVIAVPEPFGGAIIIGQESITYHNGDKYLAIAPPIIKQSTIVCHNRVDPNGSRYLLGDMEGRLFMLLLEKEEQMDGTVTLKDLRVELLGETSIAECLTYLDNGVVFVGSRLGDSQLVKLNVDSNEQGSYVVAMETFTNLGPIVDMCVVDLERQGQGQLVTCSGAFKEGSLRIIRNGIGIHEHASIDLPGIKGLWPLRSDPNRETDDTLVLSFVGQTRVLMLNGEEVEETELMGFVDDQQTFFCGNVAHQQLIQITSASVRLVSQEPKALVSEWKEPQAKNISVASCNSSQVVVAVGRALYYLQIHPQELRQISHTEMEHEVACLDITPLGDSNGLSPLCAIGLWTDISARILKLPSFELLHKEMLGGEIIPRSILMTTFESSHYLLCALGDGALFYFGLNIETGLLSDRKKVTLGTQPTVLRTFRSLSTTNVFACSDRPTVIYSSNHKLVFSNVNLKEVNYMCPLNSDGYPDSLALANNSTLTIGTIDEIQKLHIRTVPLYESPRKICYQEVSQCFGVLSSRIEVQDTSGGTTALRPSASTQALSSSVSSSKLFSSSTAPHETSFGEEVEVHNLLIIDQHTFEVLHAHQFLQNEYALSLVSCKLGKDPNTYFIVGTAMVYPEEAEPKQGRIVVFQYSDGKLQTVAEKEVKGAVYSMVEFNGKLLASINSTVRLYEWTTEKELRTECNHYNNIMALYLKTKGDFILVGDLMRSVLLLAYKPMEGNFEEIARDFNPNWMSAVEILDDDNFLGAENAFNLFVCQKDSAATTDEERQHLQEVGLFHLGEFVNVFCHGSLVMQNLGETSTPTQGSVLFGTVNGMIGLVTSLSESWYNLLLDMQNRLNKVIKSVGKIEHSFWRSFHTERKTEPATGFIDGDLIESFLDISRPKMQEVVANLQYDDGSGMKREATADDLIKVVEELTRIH
reported_endpoint: Dmax (%)

> print(dat)
                                   compound  reported.endpoint  observed.value
1  CC(C)(C(=O)NCc1cc(Cl)c(C2CCC(=O)NC2=O)c(Cl)c1)c1cnc(C2CC2)cn1 (centres unmarked)               Dmax              93
2  CC(C)(C(=O)NCc1cc(Cl)c(C2CCC(=O)NC2=O)c(Cl)c1)c1cccc(NS(C)(=O)=O)c1 (centres unmarked)               Dmax              97
3  Cc1nc(CNC(=O)C(C)(C)c2ccccc2)cc(Cl)c1C1CCC(=O)NC1=O (centres unmarked)               Dmax              47
4  CNS(=O)(=O)c1ccc(C(C)(C)C(=O)NCc2cc(Cl)c(C3CCC(=O)NC3=O)c(Cl)c2)cc1 (centres unmarked)               Dmax              97
5  CC(C)(C(=O)NCc1cc(Cl)c(C2CCC(=O)NC2=O)c(Cl)c1)c1ncc(C#N)cn1 (centres unmarked)               Dmax              95
6  O=C1CCC(c2c(Cl)cc(CNC(=O)C3(c4ccccc4)COC3)cc2Cl)C(=O)N1 (centres unmarked)               Dmax              90
7  CC(C)(C(=O)NCc1cc(Cl)c(C2CCC(=O)NC2=O)c(Cl)c1)c1ccc2[nH]ncc2c1 (centres unmarked)               Dmax              97
8  CC(C)(C(=O)NCc1cc(Cl)c(C2CCC(=O)NC2=O)c(Cl)c1)c1ccc2cnncc2c1 (centres unmarked)               Dmax              77

* * *

Target: CRBN-DDB1 (Homo sapiens (Human))
Test: Compound binding to CRBN by HTRF assay
Conditions: HTRF class; Cereblon binding
Procedure: Compound activity was monitored in a Homogenous Time-Resolved Fluorescence (HTRF) assay using 1-[5-({2-[2-(2-{[2-(2,6-dioxopiperidin-3-yl)-1,3-dioxo-2,3-dihydro-1H-isoindol-4-yl]oxy}acetamido)ethoxy]ethyl}carbamoyl)pentyl]-3,3-dimethyl-2-[(1E,3E)-5-[(2E)-1,3,3-trimethyl-5-sulfo-2,3-dihydro-1H-indol-2-ylidene]penta-1,3-dien-1-yl]-3H-indol-1-ium-5-sulfonate as a fluorescent probe. Biochemical assays were conducted in Greiner white 384 well HiBase plates (Cat. No 784075-25) in 20 μL total volume. […]
pEC50: −log10 of the molar value.
The following molecules are listed with their measured pEC50 values.
reported_endpoint: pEC50

> print(dat)
                                   molecule  reported.endpoint  observed.value
1  Cc1nccc(C(C)(C)C(=O)NCc2cc(Cl)c(C3CCC(=O)NC3=O)c(Cl)c2)n1 (centres unmarked)              pEC50    6.00 to 7.00
2  Cc1nc(C(C)(C)C(=O)NCc2cc(Cl)c(C3CCC(=O)NC3=O)c(Cl)c2)oc1C (centres unmarked)              pEC50          ≥ 7.00
3  Cc1cc(C(C)(C)C(=O)NCc2cc(Cl)c(C3CCC(=O)NC3=O)c(Cl)c2)cc(=O)[nH]1 (centres unmarked)              pEC50    6.00 to 7.00
4  Cn1cccc(C(C)(C)C(=O)NCc2cc(Cl)c(C3CCC(=O)NC3=O)c(Cl)c2)c1=O (centres unmarked)              pEC50    6.00 to 7.00
5  Cc1nc(CNC(=O)C(C)(C)c2ccccc2)cc(Cl)c1C1CCC(=O)NC1=O (centres unmarked)              pEC50    6.00 to 7.00

* * *

biological target: CRBN-DDB1 (Homo sapiens (Human)); test: Compound binding to CRBN by HTRF assay
reported_endpoint: EC50 (nM)

> print(dat)
                                   compound  reported.endpoint  units.text  observed.value
1  CC(C)(C(=O)NCc1cc(Cl)c(C2CCC(=O)NC2=O)c(Cl)c1)c1cccnn1 (stereo not shown)               EC50          nM             150
2  CC(C)(C(=O)NCc1cc(Cl)c(C2CCC(=O)NC2=O)c(Cl)c1)c1ccsc1 (stereo not shown)               EC50          nM              50
3  COc1cc(C(C)(C)C(=O)NCc2cc(Cl)c(C3CCC(=O)NC3=O)c(Cl)c2)ccn1 (stereo not shown)               EC50          nM             110
4  Cc1nnc(C(C)(C)C(=O)NCc2cc(Cl)c([C@@H]3CCC(=O)NC3=O)c(Cl)c2)o1 (single isomer, unassigned)               EC50          nM              90
5  Cc1nnc(C(C)(C)C(=O)NCc2cc(Cl)c([C@H]3CCC(=O)NC3=O)c(Cl)c2)o1 (single isomer, unassigned)               EC50          nM            6560
6  CC(C)(C(=O)NCc1cc(Cl)c(C2CCC(=O)NC2=O)c(Cl)c1)c1ccon1 (stereo not shown)               EC50          nM             290
7  O=C1CCC(c2c(Cl)cc(CNC(=O)C3(c4ccccc4)CCC3)cc2Cl)C(=O)N1 (stereo not shown)               EC50          nM              40

* * *

The following compounds are listed with their measured Dmax values.
target: NEK7 (Homo sapiens (Human), UniProt Q8TDX7+Q96SW2); assay: NEK7 NanoBiT degradation assay in Cal51 NEK7 NanoBiT cell line; assay type: cell-based; settings: CAL-51; Cal51 NEK7 NanoBiT cells, 24 hours; read-out: NEK7 NanoBiT Dmax
reported_endpoint: Dmax (%)

> print(dat)
                                    compound  observed.value
 1  Cc1noc(C(C)(C)C(=O)NCc2cc(Cl)c(C3CCC(=O)NC3=O)c(Cl)c2)n1 (stereo not drawn) [Compound 164]              68
 2  CC(C)(C(=O)NCc1cc(Cl)c(C2CCC(=O)NC2=O)c(Cl)c1)c1cccnc1 (stereo not drawn) [Compound 99]              87
 3  COCc1cnc(C(C)(C)C(=O)NCc2cc(Cl)c(C3CCC(=O)NC3=O)c(Cl)c2)nc1 (stereo not drawn) [Compound 183]              71
 4  CC(C)(C(=O)NCc1cc(Cl)c(C2CCC(=O)NC2=O)c(Cl)c1)c1ccc2ncoc2n1 (stereo not drawn) [Compound 184]              95
 5  CC(C)(C(=O)NCc1ccc(C2CCC(=O)NC2=O)c(Cl)c1)c1ccc(S(N)(=O)=O)cc1 (stereo not drawn) [Compound 56]              67
 6  O=C1CCC(c2c(Cl)cc(CNC(=O)C3(c4ccccc4)CCOCC3)cc2Cl)C(=O)N1 (stereo not drawn) [Compound 128]              95
 7  Cn1cncc1C(C)(C)C(=O)NCc1cc(Cl)c(C2CCC(=O)NC2=O)c(Cl)c1 (stereo not drawn) [Compound 123]              70
 8  Cc1cnc(C(C)(C)C(=O)NCc2cc(F)c(C3CCC(=O)NC3=O)c(Cl)c2)nc1 (stereo not drawn) [Compound 253]              45
 9  CC(C)(C(=O)NCc1cc(Cl)c(C2CCC(=O)NC2=O)c(Cl)c1)c1cc(C#N)ccn1 (stereo not drawn) [Compound 157]              60
10  Cn1ncc2ccc(C3(C(=O)NCc4cc(Cl)c(C5CCC(=O)NC5=O)c(Cl)c4)CCOCC3)cc21 (stereo not drawn) [Compound 133]              94
11  Cc1cnc(C(C)(CO)C(=O)NCc2cc(Cl)c(C3CCC(=O)NC3=O)c(Cl)c2)nc1 (stereo not drawn) [Compound 241]              86
12  CC(C)(O)c1cnc(C(C)(C)C(=O)NCc2cc(Cl)c(C3CCC(=O)NC3=O)c(Cl)c2)cn1 (stereo not drawn) [Compound 238]              63

Reference source for all entries: patent US20250243180A1
